Would you mind telling me the reported AC50 of each entry?
System: TTR (gene 7276)
test details: CCTE_GLTED_hTTR_0.125uM: CCTE's human Transthyretin (hTTR) Inhibition Assay, with 0.125uM TTR, Great Lakes Toxicology and Ecology Division (GLTED) Lab (AID 2284431);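 further: hits lower the fluorescence signal relative to DMSO baseline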
Description: CCTE_GLTED_hTTR is a cell-free, single-readout assay designed to test the chemicals' ability to displace T4 from the human transthyretin (TTR) protein. TTR (at 0.125uM or 0.5uM) is incubated in presence of test chemical for 2 hours during which disrupting chemicals displace ANSA from the TTR protein. Results read fluorescence at 380 excitation and 475 emission.CCTE_GLTED_hTTR_0.125uM is the assay component measured from the CCTE_GLTED_hTTR assay. […]
Calls of active or inactive are those of the source. How the source made its calls: active means hit-call score of the fitted dose curve at least 0.9, where 1 is the maximum; inactive means score below 0.9.

Given item "Cc1ccc(S(=O)(=O)Oc2ccc(N=Nc3ccc(-c4ccc(N=Nc5c(O)ccc6cc(S(=O)(=O)O)cc(S(=O)(=O)O)c56)c(C)c4)cc3C)cc2)cc1" , the value recorded as its AC50 is 0.912 µM (active)

Given item CCCCCCC(CO)CCCC (centres undefined) , the value recorded as its AC50 is 46.7 µM (active)

Given item "CC(C)CCCCCCCCCCCCCCC(=O)O" , the value recorded as its AC50 is 0.891 µM (active)

Given item "Nc1ccc2cc(S(=O)(=O)O)cc(O)c2c1N=Nc1ccccc1C(F)(F)F" , the value recorded as its AC50 is 0.0397 µM (active)

Given item "CCCCCCCCc1ccc(S(=O)(=O)O)cc1" , the value recorded as its AC50 is 2.97 µM (active)

Given item "BrCc1cccc(Oc2ccccc2)c1" , the value recorded as its AC50 is 4.22 µM (active)

Given item "O=[N+]([O-])c1ccc(O)cc1C(F)(F)F" , the value recorded as its AC50 is 0.111 µM (active)

Given item "O=C(Nc1ccc2c(O)c(N=Nc3ccc(N=Nc4ccc(S(=O)(=O)O)cc4)cc3)c(S(=O)(=O)O)cc2c1)c1ccccc1" , the value recorded as its AC50 is 9.92 µM (active)

Given item "Oc1ccc2cc(SSc3ccc4cc(O)ccc4c3)ccc2c1" , the value recorded as its AC50 is 0.113 µM (active)

Given item "CC(C)c1ccccc1O" , the value recorded as its AC50 is 32.4 µM (active)

Given item "Cc1cc(S(=O)(=O)O)ccc1N=Nc1c(O)ccc2ccccc12" , the value recorded as its AC50 is 0.079 µM (active)

Given item CCCCC(CC)COC(=O)c1ccc(O)cc1 (centres undefined) , the value recorded as its AC50 is 0.434 µM (active)

Given item "Nc1ccccc1[N+](=O)[O-]" , the value recorded as its AC50 is 20.3 µM (active)

Given item "OCc1cccc(Oc2ccccc2)c1" , the value recorded as its AC50 is 12.2 µM (active)

---

experimental system: Signal transducer and activator of transcription 3 (Homo sapiens)
test details: ATG_STAT3_CIS: Attagene CIS-FACTORIAL HepG2 Assay for human Signal Transducer and Activator of Transcription 3 (STAT3) (AID 2282963)
condition info: HepG2, Attagene cis-factorial STAT3 reporter transcription; actives raise or lower the signal
Activity calls are given as the source filed them. Rule for the calls: active = hit-call score of the fitted dose curve at least 0.9, where 1 is the maximum; inactive = score below 0.9.
A correct response names exactly one class from 1 (yes) for active, 0 (no) for inactive

Check the results log: what was the call for "CCCC[O][Al]([O]CCCC)[O]CCCC" ?
0 (no)

Check the results log: what was the call for CCC(C)c1cc([N+](=O)[O-])cc([N+](=O)[O-])c1OC(=O)OC(C)C (centres undefined) ?
1 (yes)

Check the results log: what was the call for "CCCC(C)=O" ?
0 (no)

Check the results log: what was the call for "CC1(C)C(=O)N(Cl)C(=O)N1Br" ?
0 (no)

Check the results log: what was the call for CCOC(=O)C1OC1c1ccccc1 (centres undefined) ?
0 (no)

Check the results log: what was the call for "CC(C)OCCO" ?
0 (no)

Check the results log: what was the call for "O=C(CC(=O)c1ccccc1)c1ccccc1" ?
0 (no)

Check the results log: what was the call for "Clc1cc(Cl)c(-c2c(Cl)c(Cl)cc(Cl)c2Cl)cc1Cl" ?
0 (no)

Check the results log: what was the call for "CCCCCC(C=O)=Cc1ccccc1" ?
0 (no)

Check the results log: what was the call for "CCCN(CCC)S(=O)(=O)c1ccc(C(=O)O)cc1" ?
0 (no)

Check the results log: what was the call for "O=C1OC[C@H](Cc2cccc(O)c2)[C@H]1Cc1cccc(O)c1" ?
0 (no)

Check the results log: what was the call for "CC(=O)c1ccccn1" ?
0 (no)

Check the results log: what was the call for "CN1C(=O)c2ccccc2C1=O" ?
0 (no)

Check the results log: what was the call for "C=Cc1ccncc1" ?
0 (no)

Check the results log: what was the call for C=CC(C)(O)CCC=C(C)C (centres undefined) ?
0 (no)

Check the results log: what was the call for "CCCCCCC(C)(C)S" ?
0 (no)

Check the results log: what was the call for "CC1=C(Br)C(=O)C(Br)=C/C1=C(/c1ccccc1S(=O)(=O)O)c1cc(Br)c(O)c(Br)c1C" ?
0 (no)

Check the results log: what was the call for "CN(C)c1cccc(O)c1" ?
0 (no)

Check the results log: what was the call for CC(=O)C(C)O (centres undefined) ?
0 (no)

Check the results log: what was the call for CCOc1ccc(NC(=O)CC(C)O)cc1 (centres undefined) ?
0 (no)

Check the results log: what was the call for "NCc1ccco1" ?
0 (no)

Check the results log: what was the call for "Cc1ccc(S(N)(=O)=O)cc1" ?
0 (no)

Check the results log: what was the call for "CC(C)CCCCCCc1ccc(OCCOCCO)cc1" ?
0 (no)

Check the results log: what was the call for CC(=O)O[C@@H]1CC2CCC1(C)C2(C)C (some centres undefined) ?
0 (no)

Check the results log: what was the call for "CCC(=O)OCCOc1ccccc1" ?
0 (no)

Check the results log: what was the call for "CCCCCCOC(=O)CCC" ?
0 (no)

Check the results log: what was the call for "Nc1ccc2c(O)cc(S(=O)(=O)O)cc2c1" ?
0 (no)

Check the results log: what was the call for "CCCCCCOCCOCCO" ?
0 (no)

Check the results log: what was the call for "CC(C)(CO)[C@@H](O)C(=O)NCCC(=O)O" ?
0 (no)

Check the results log: what was the call for Cc1c(OCC(F)(F)F)ccnc1CS(=O)c1nc2ccccc2[nH]1 (centres undefined) ?
0 (no)

Check the results log: what was the call for CC(CN=Cc1ccccc1O)N=Cc1ccccc1O (centres undefined) ?
0 (no)

Check the results log: what was the call for "CN(C)CCOc1ccc(/C(=C(/CCCl)c2ccccc2)c2ccccc2)cc1" ?
0 (no)

Check the results log: what was the call for "CC1=NN(c2ccc(S(=O)(=O)O)cc2)C(=O)C1" ?
0 (no)

Check the results log: what was the call for "COc1ccc(N=Nc2cc(C)c(N=Nc3ccc(S(=O)(=O)O)cc3)cc2OC)cc1" ?
1 (yes)

Check the results log: what was the call for CC1CCC(C(C)C)C(O)C1 (centres undefined) ?
0 (no)

Check the results log: what was the call for "C[Si]1(C)O[Si](C)(C)O[Si](C)(C)O1" ?
0 (no)

Check the results log: what was the call for "CCCC(=O)OCCc1ccccc1" ?
0 (no)

Check the results log: what was the call for "CCCCCCOC(=O)C(C)C" ?
0 (no)

Check the results log: what was the call for "CCOC(=O)CN" ?
0 (no)

Check the results log: what was the call for "C[Si](C)(C)O[Si](C)(C)C" ?
0 (no)

Check the results log: what was the call for "C=Cc1ccc(C(C)(C)C)cc1" ?
0 (no)

Check the results log: what was the call for CCCCCCCCCC(C)C=O (centres undefined) ?
0 (no)

Check the results log: what was the call for "CC(=O)O[C@@H]1C[C@@H]2CC[C@@]1(C)C2(C)C" ?
0 (no)

Check the results log: what was the call for "CCCCCCCC/C=C\CCCCCCCC(=O)OCC" ?
0 (no)

Check the results log: what was the call for "NC(=S)NNC(N)=S" ?
0 (no)

Check the results log: what was the call for "O=C(CS)OCCOC(=O)CS" ?
0 (no)

Check the results log: what was the call for "Nc1ccc2cc(S(=O)(=O)O)cc(O)c2c1N=Nc1ccccc1C(F)(F)F" ?
0 (no)

Check the results log: what was the call for "CCc1cc(Cc2cc(CC)cc(C(C)(C)C)c2O)c(O)c(C(C)(C)C)c1" ?
0 (no)

Check the results log: what was the call for "C1CCOC1" ?
0 (no)

Check the results log: what was the call for "O=[N+]([O-])c1ccc(O)cc1C(F)(F)F" ?
0 (no)

Check the results log: what was the call for CN(C)CCOC(C)(c1ccccc1)c1ccccn1 (centres undefined) ?
0 (no)

Check the results log: what was the call for "CS(=O)(=O)c1ccc(C2=C(c3ccccc3)C(=O)OC2)cc1" ?
0 (no)

Check the results log: what was the call for "COc1ccc(CCO)cc1" ?
1 (yes)

Check the results log: what was the call for "CC(C)(C)CC(C)(C)c1ccc(OCCOCC[N+](C)(C)Cc2ccccc2)cc1" ?
0 (no)

Check the results log: what was the call for "CCCCCC(C)=O" ?
0 (no)

Check the results log: what was the call for "OCc1ccc(Cl)cc1Cl" ?
0 (no)

Check the results log: what was the call for "CCCCCCCCCC(=O)OC" ?
0 (no)

Check the results log: what was the call for CCCCC(CC)COC(=O)c1ccc(O)cc1 (centres undefined) ?
0 (no)

Check the results log: what was the call for "CCCC(=O)c1ccccc1" ?
0 (no)
